PGI (% of DB1127 at 10 uM) values for the compounds below.
Tested on: E. multilocularis metacestodes
Experiment: PGI assay: phosphoglucose isomerase release from damaged metacestodes
Format: cell-based, Echinococcus multilocularis
Conditions: 10 μM, 5 days, single wells, relative to DB1127 (10 μM)
Please reply with the bare figure in % and do not write the unit itself.

// worked examples, PGI (% of DB1127 at 10 uM) included
Cc1ccc2c(C)nc(Nc3nc(C)cc(-c4ccccc4)n3)nc2c1; -2.18
COc1ccc2nc(C)cc(Nc3cccc(O)c3)c2c1.Cl; -12.96
O=C1c2ccccc2C2=Nc3ccccc3SC(c3cccc(F)c3)C12 (stereo not shown); -15.52
COc1ccc(C=C2SC(=N)N(c3ccccc3OC)C2=O)cc1; -41.85
Oc1c(C(Nc2ccccn2)c2cccc(Oc3ccccc3)c2)ccc2cccnc12 (stereo not shown); -6.04
COc1ccc(CCn2c(=N)c(C(=O)NCc3cccnc3)cc3c(=O)n4cccc(C)c4nc32)cc1; -13.42
O=C(Nc1nc(-c2ccccn2)cs1)c1ccccc1Br; -125.86
Clc1ccc2c(N3CCCC3)ccnc2c1; -15.91
COc1cc2cc(C(=O)Nc3ccccc3)c(N)nc2cc1OC; -7.82
CCOc1ccc(Nc2ccnc3cc(Cl)ccc23)cc1; -9.06

Test system E. multilocularis metacestodes; read-out PGI (% of DB1127 at 10 uM); what value for CCN(CC)CCn1c(=N)n(CC(O)c2ccc(Cl)c(Cl)c2)c2ccccc21.Cl (stereo not shown) ?
-18.11

Try CCN(CC)CCNc1ncnc2c1[nH]c1ccc(Cl)cc12 next.
-47.33

And O=C(Nc1ccc(Cl)cc1)N1CCN(c2ccc3nncn3n2)CC1 ?
-87.17

One more compound: O=C1c2ccc3c4c(ccc(c24)C(=O)N1CCCCO)C(=O)N(CCCCO)C3=O
-6.63

How about this compound: c1ccc2cc3c(Nc4ccc(N5CCOCC5)cc4)ccnc3cc2c1
-26.86

Do the same for O=C(Nc1ccc(-c2nc3cc(NC(=O)c4ccc(Cl)cc4)ccc3[nH]2)cc1)c1ccc(Cl)cc1 please
-9.85

---

Tested on: E. multilocularis metacestodes
Test: PGI assay: phosphoglucose isomerase release from damaged metacestodes
Format: cell-based, Echinococcus multilocularis
Conditions: 10 μM, 5 days, single wells, relative to DB1127 (10 μM)
Quick reference for PGI (% of DB1127 at 10 uM) among some compounds
Answer with a number only, understood to be in %.

Before answering, review these 6 worked examples.
COc1ccc(CCN2CCC(CN(C)Cc3cnn(-c4ccccc4)c3)CC2)cc1 [MMV666069]; -33.62
COc1ccc(C(=O)NC(c2ccccc2Cl)c2cc(Cl)c3cccnc3c2O)cc1 (stereo not shown) [MMV666022]; 259.47
Cc1ccnc(NC(c2cccc(OCc3ccccc3)c2)c2ccc3cccnc3c2O)c1 (stereo not shown) [MMV000720]; -5.36
Cc1ccc(CSCc2ccc(C(=O)NC3CC3)o2)cc1 [MMV007571]; -9.42
CC(C)c1ccc(CNCC(O)c2ccccc2)cc1.Cl (stereo not shown) [MMV001049]; 12.43
COc1nc(Nc2ccc(C(C)C)cc2)nc(OC)n1 [MMV007808]; -19.50

Request the reported PGI (% of DB1127 at 10 uM) associated with CCC(O)c1ccc(Br)cc1NC(=O)c1cccc(Cl)c1 (stereo not shown) [MMV020654]
-1.89

Now this one: CCOc1cc(Cl)c(C(C)NC(=O)c2ccccc2)cc1OCC (stereo not shown) [MMV665800]
-123.29

// same read-out, input: COc1cccc(C=Cc2nc(=O)c3ccccc3o2)c1OC [MMV666693]
-16.84

Please do the same for O=C(CCl)NCCOc1ccc(Cl)cc1Cl [MMV665927] as well.
24.95
